Task for the reader: assign each of the following molecules its reported Population Tubulin-Different-Phenotype (%).
# System: Fibroblast
# experiment_notes: Multiplex assay against human fibroblast
# Format: toxicity, cell-based
# experimental_parameters: 48 h, 1 µM, compound concentration 1 uM, replicate 2
Answer in %, number only, no unit symbol.

q: Give the measured Population Tubulin-Different-Phenotype (%) of `COCCn1c(C)c(C)s/c1=N\C(=O)C1C(C)(C)C1(C)C` .
a: 45

q: Give the measured Population Tubulin-Different-Phenotype (%) of `Nc1nc(-c2ccco2)c2cnn(Cc3ccccc3F)c2n1` .
a: 37

q: Give the measured Population Tubulin-Different-Phenotype (%) of COc1c(Nc2ccc(S(C)(=O)=O)nc2C)ncnc1OC1CCN(C(=O)OC(C)C)CC1 [ADP-597] .
a: 59

q: Give the measured Population Tubulin-Different-Phenotype (%) of CCC(=O)OCC(=O)[C@@]1(OC(=O)CC)[C@@H](C)C[C@H]2[C@@H]3CCC4=CC(=O)C=C[C@]4(C)[C@@]3(Cl)[C@@H](O)C[C@@]21C [BECLOMETHASONE DIPROPIONATE] .
a: 54

q: Give the measured Population Tubulin-Different-Phenotype (%) of `C[C@@H]1CC(=O)Nc2cccc(-c3ccc4c(c3)c(-c3cnn(C)c3)nn4C)c2N1` .
a: 60

q: Give the measured Population Tubulin-Different-Phenotype (%) of C=CCN1C[C@H](C(=O)N(CCCN(C)C)C(=O)NCC)C[C@@H]2c3cccc4[nH]cc(c34)C[C@H]21 [CABERGOLINE] .
a: 33

q: Give the measured Population Tubulin-Different-Phenotype (%) of Cc1c(Cc2ccc3ccccc3n2)c2cc(F)ccc2n1CC(=O)O [TIMAPIPRANT] .
a: 34

q: Give the measured Population Tubulin-Different-Phenotype (%) of Cc1cc(-c2ccc3c(c2)CC[C@H]3N2CC3(CCN(C(=O)Cc4cn5cc(C)sc5n4)CC3)C2)ncn1 [PF-5190457] .
a: 68

q: Give the measured Population Tubulin-Different-Phenotype (%) of Cl.Cl.OCCOCCN1CCN(C(c2ccccc2)c2ccc(Cl)cc2)CC1 (configuration not stated) [HYDROXYZINE HYDROCHLORIDE] .
a: 44

q: Give the measured Population Tubulin-Different-Phenotype (%) of COc1ccc2[nH]c(I)c(CCNC(C)=O)c2c1 [IODOMELATONIN] .
a: 40

q: Give the measured Population Tubulin-Different-Phenotype (%) of `COc1cc(OC2CCN(C(C)=O)CC2)ccc1C(=O)N1CCC(N2C(=O)OCc3ccccc32)CC1` .
a: 43

q: Give the measured Population Tubulin-Different-Phenotype (%) of `COc1cc(C(=O)N2CC[C@@H](O)[C@@H](N)C2)cc2nc(-c3cc4ccccc4n3CC3CC3)n(C)c12.Cl` .
a: 80

q: Give the measured Population Tubulin-Different-Phenotype (%) of CSc1nc(NC2CCCC2)c([N+](=O)[O-])c(NC2CCCC2)n1 [GS-39783] .
a: 60

q: Give the measured Population Tubulin-Different-Phenotype (%) of `CC(F)(F)CN1CCOc2c(nn(-c3ccccc3Cl)c2-c2ccc(Cl)cc2)C1=O` .
a: 72

q: Give the measured Population Tubulin-Different-Phenotype (%) of CN(C)C/C=C/C(=O)Nc1ccc(C(=O)N2CCCC(Nc3ncc(Cl)c(-c4c[nH]c5ccccc45)n3)C2)cc1 (configuration not stated) .
a: 68

q: Give the measured Population Tubulin-Different-Phenotype (%) of Nc1nc(CC(=O)Nc2ccc(CCNC[C@H](O)c3ccccc3)cc2)cs1 [MIRABEGRON] .
a: 32

q: Give the measured Population Tubulin-Different-Phenotype (%) of `COc1cc2nc(N3CCN(C(=O)COc4c(OC)cccc4C(C)C)CC3)nc(N)c2cc1OC.Cl.Cl` .
a: 57

----------
Task for the reader: assign each of the following molecules its reported Population Healthy Nuclei (%).
# System: HEK-293T
# experiment_notes: Multiplex assay against HEK293T
# Format: toxicity, cell-based
# experimental_parameters: human, 12 h, 1 µM, compound concentration 1 uM, replicate 2
Non-standard residues stand in square brackets, D forms with d. Residues, ends and D or L forms follow the SMILES beside them.
Answer in %, number only, no unit symbol.

q: Give the measured Population Healthy Nuclei (%) of `C[C@@H]1CC(=O)Nc2cccc(-c3ccc4c(c3)c(-c3cnn(C)c3)nn4C)c2N1` .
a: 77

q: Give the measured Population Healthy Nuclei (%) of `COc1ccc2c(c1OCc1ccccc1)C[C@@H](C(=O)O)N(C(=O)C(c1ccccc1)c1ccccc1)C2` .
a: 81

q: Give the measured Population Healthy Nuclei (%) of `COc1cc(C(=O)N2CC[C@@H](O)[C@@H](N)C2)cc2nc(-c3cc4ccccc4n3CC3CC3)n(C)c12.Cl` .
a: 77

q: Give the measured Population Healthy Nuclei (%) of `CSc1nc(NC2CCCC2)c([N+](=O)[O-])c(NC2CCCC2)n1` .
a: 85

q: Give the measured Population Healthy Nuclei (%) of `COc1cc2nc(N3CCN(C(=O)COc4c(OC)cccc4C(C)C)CC3)nc(N)c2cc1OC.Cl.Cl` .
a: 81

q: Give the measured Population Healthy Nuclei (%) of `N[C@](CC1c2ccccc2Oc2ccccc21)(C(=O)O)[C@H]1C[C@@H]1C(=O)O` .
a: 79

q: Give the measured Population Healthy Nuclei (%) of `COC(c1ccccc1)(c1ccccc1)[C@H](Oc1nc(C)cc(C)n1)C(=O)O` .
a: 81

q: Give the measured Population Healthy Nuclei (%) of `COc1c(Nc2ccc(S(C)(=O)=O)nc2C)ncnc1OC1CCN(C(=O)OC(C)C)CC1` .
a: 80

q: Give the measured Population Healthy Nuclei (%) of `Nc1nc(CC(=O)Nc2ccc(CCNC[C@H](O)c3ccccc3)cc2)cs1` .
a: 80

q: Give the measured Population Healthy Nuclei (%) of `Nc1nc(-c2ccco2)c2cnn(Cc3ccccc3F)c2n1` .
a: 81

q: Give the measured Population Healthy Nuclei (%) of `Cn1cc(C(=O)OCC2CCN(CCNS(C)(=O)=O)CC2)c2ccccc21` .
a: 76

q: Give the measured Population Healthy Nuclei (%) of `COc1ccc2[nH]c(I)c(CCNC(C)=O)c2c1` .
a: 84

q: Give the measured Population Healthy Nuclei (%) of CC(C)C[C@@H]1NC(=O)[C@@H](C(C)C)NC(=O)[C@@H]2CCCN2C(=O)[C@@H](CC(=O)O)NC(=O)[C@@H](Cc2c[nH]c3ccccc23)NC1=O [BQ-123] (cyclo(L[dW][dD]P[dV])) .
a: 82

q: Give the measured Population Healthy Nuclei (%) of CN1CCN2c3ccccc3Cc3ccccc3C2C1.Cl (stereo not drawn) [MIANSERIN HYDROCHLORIDE] .
a: 77

q: Give the measured Population Healthy Nuclei (%) of Cc1ccc(OCC(O)C(C)NC(C)C)c2c1CCC2.Cl (stereo not drawn) .
a: 84

q: Give the measured Population Healthy Nuclei (%) of `Cc1sc2c(c1C)C(c1ccc(Cl)cc1)=N[C@H](CC(=O)OC(C)(C)C)c1nnc(C)n1-2` .
a: 76

q: Give the measured Population Healthy Nuclei (%) of CN(C)C/C=C/C(=O)Nc1ccc(C(=O)N2CCCC(Nc3ncc(Cl)c(-c4c[nH]c5ccccc45)n3)C2)cc1 (stereo not drawn) .
a: 64

q: Give the measured Population Healthy Nuclei (%) of `CC(C)C[C@H](CO)Nc1nc(S[C@@H](C)c2ccccc2)nc2nc(N)sc12` .
a: 72

----------
# System: Fibroblast
# experiment_notes: Multiplex assay against human fibroblast
# Assay type: toxicity, cell-based
# experimental_parameters: 24 h, 10 µM, compound concentration 10 uM, replicate 1
Non-standard residues stand in square brackets, D forms with d. Residues, ends and D or L forms follow the SMILES beside them.
measurement_type: Population Pyknosed Nuclei (%)
Answer in %, number only, no unit symbol.

q: Give the measured Population Pyknosed Nuclei (%) of `CCCCCCNC(=O)Nc1ccc(S(=O)(=O)Nc2ccc(CCNC[C@H](O)COc3ccc(O)cc3)cc2)cc1` .
a: 8

q: Give the measured Population Pyknosed Nuclei (%) of CC(C)C[C@@H]1NC(=O)[C@@H](C(C)C)NC(=O)[C@@H]2CCCN2C(=O)[C@@H](CC(=O)O)NC(=O)[C@@H](Cc2c[nH]c3ccccc23)NC1=O [BQ-123] (cyclo(L[dW][dD]P[dV])) .
a: 15

q: Give the measured Population Pyknosed Nuclei (%) of CN(C)C/C=C/C(=O)Nc1ccc(C(=O)N2CCCC(Nc3ncc(Cl)c(-c4c[nH]c5ccccc45)n3)C2)cc1 (stereo not given) .
a: 37

q: Give the measured Population Pyknosed Nuclei (%) of `O=c1ccc2ccc(OCCCCN3CCN(c4cccc5sccc45)CC3)cc2[nH]1` .
a: 31

q: Give the measured Population Pyknosed Nuclei (%) of O=C(NCCNCC(O)COc1ccc(O)cc1)N1CCOCC1.O=C(NCCNCC(O)COc1ccc(O)cc1)N1CCOCC1.O=C(O)/C=C/C(=O)O (stereo not given) [XAMOTEROL FUMARATE] .
a: 12

q: Give the measured Population Pyknosed Nuclei (%) of `S=C(NCCCc1c[nH]cn1)NCCCN(Cc1ccc(Cl)c(Cl)c1)c1ccc(Br)cn1` .
a: 15

q: Give the measured Population Pyknosed Nuclei (%) of `O=c1nc2[nH]c3ccccc3nc-2c(=O)[nH]1` .
a: 15

q: Give the measured Population Pyknosed Nuclei (%) of CN1CCN2c3ccccc3Cc3ccccc3C2C1.Cl (stereo not given) [MIANSERIN HYDROCHLORIDE] .
a: 11

q: Give the measured Population Pyknosed Nuclei (%) of `CN(C)C(=O)Cn1cc(-c2ccc(-c3nnc4ccccn34)cc2)cn1` .
a: 24

q: Give the measured Population Pyknosed Nuclei (%) of `N[C@](CC1c2ccccc2Oc2ccccc21)(C(=O)O)[C@H]1C[C@@H]1C(=O)O` .
a: 20

q: Give the measured Population Pyknosed Nuclei (%) of `CC(C)C[C@H](CO)Nc1nc(S[C@@H](C)c2ccccc2)nc2nc(N)sc12` .
a: 12

q: Give the measured Population Pyknosed Nuclei (%) of `Nc1nc(-c2ccco2)c2cnn(Cc3ccccc3F)c2n1` .
a: 14

q: Give the measured Population Pyknosed Nuclei (%) of `COc1ccc2c(c1OCc1ccccc1)C[C@@H](C(=O)O)N(C(=O)C(c1ccccc1)c1ccccc1)C2` .
a: 21

q: Give the measured Population Pyknosed Nuclei (%) of CN1C[C@H](C(=O)N[C@]2(C)O[C@@]3(O)[C@@H]4CCCN4C(=O)[C@H](Cc4ccccc4)N3C2=O)C[C@@H]2c3cccc4[nH]cc(c34)C[C@H]21.CS(=O)(=O)O [DIHYDROERGOTAMINE MESYLATE] .
a: 10

q: Give the measured Population Pyknosed Nuclei (%) of CCC(=O)OCC(=O)[C@@]1(OC(=O)CC)[C@@H](C)C[C@H]2[C@@H]3CCC4=CC(=O)C=C[C@]4(C)[C@@]3(Cl)[C@@H](O)C[C@@]21C [BECLOMETHASONE DIPROPIONATE] .
a: 19

Data origin, for the record: ChEMBL document CHEMBL5058577
